Values were extracted from patent US4873236A.

readout: IC50 (µM)
Quick note: give the figure in µM, leave out the unit.

*Q* Look up muscarinic receptors, submandibular gland (Rattus norvegicus, UniProt P08483) data: IC50 of CCN(CC)CC1CCCCN1CC(=O)N1c2ccccc2C(=O)Nc2cccnc21 (stereo not shown) [Substance X, reference compound] , then report it.
*A* 5

---

target: M1 (rise in blood pressure by McN-A-343) (Rattus norvegicus, UniProt P08482); construct: from tissue; assay: M1/M2 selectivity in the rat: inhibition of McN-A-343 blood pressure increase (M1); assay type: in vivo, male THOM rats; conditions: iv, 5 min, i.v., 50% reduction in blood pressure rise by 0.3 mg/kg McN-A-343, read-out: M1 activity (rat) ED50
Sequence (P08482 whole entry): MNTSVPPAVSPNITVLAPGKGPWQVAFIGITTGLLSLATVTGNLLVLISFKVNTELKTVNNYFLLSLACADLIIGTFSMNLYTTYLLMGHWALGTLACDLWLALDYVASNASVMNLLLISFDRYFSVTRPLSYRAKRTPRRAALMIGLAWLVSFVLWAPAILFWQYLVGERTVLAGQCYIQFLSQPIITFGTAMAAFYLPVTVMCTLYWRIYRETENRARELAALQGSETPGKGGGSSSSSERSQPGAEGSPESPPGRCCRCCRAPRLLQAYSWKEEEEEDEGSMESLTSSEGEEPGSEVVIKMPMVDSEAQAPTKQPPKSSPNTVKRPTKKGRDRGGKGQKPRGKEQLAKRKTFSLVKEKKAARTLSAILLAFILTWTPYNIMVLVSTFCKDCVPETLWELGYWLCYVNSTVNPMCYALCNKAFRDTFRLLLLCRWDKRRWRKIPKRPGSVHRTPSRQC
readout: ED50
Field: value (include unit after the number)

*Q* Please supply the value of reported ED50 for the item CCN(CC)CC1CCCCN1CCNC(=O)N1c2ccccc2NC(=O)c2csc(C)c21 (stereo not shown)
*A* 0.033 mg/kg

*Q* Indicate its recorded ED50; the compound in question is CCN(CC)CC1CCCCN1CC(=O)N1c2ccccc2C(=O)Nc2cccnc21 (stereo not shown) [Substance X, reference compound]
*A* 0.988 mg/kg

*Q* Return ED50 (reported value) for this compound: CCCN(CCC)CC1CCCCN1CCNC(=O)N1c2ccccc2C(=O)Nc2cccnc21 (stereo not shown)
*A* 0.562 mg/kg

*Q* Provide one value: measured ED50 of CCN(CC)CC1CCCCN1CCNC(=O)N1c2cc(Cl)ccc2C(=O)Nc2cccnc21 (stereo not shown)
*A* 0.36 mg/kg
